Below, each entry is listed with its recorded EC50.
# TEST_SYSTEM: PD-1/PD-L1 interaction (Homo sapiens, UniProt Q9NZQ7)
# Construct: expressed in transfected cells; host or cells: CHO cells (aAPC-PD-L1) co-cultured with Jurkat cells overexpressing PD-1 and an NFAT-luciferase reporter
# Sequence (Q9NZQ7 19-290): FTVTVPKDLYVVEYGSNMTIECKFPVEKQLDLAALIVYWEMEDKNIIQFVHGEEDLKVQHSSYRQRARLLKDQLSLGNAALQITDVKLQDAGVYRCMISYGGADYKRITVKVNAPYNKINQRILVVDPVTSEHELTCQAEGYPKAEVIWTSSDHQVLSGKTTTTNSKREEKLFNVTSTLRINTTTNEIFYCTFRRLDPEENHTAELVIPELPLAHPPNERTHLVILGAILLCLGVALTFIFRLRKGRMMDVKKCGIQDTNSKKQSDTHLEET
# EXPERIMENTAL_DETAILS: PD-1/PD-L1 NFAT reporter co-culture assay
# Type: cell-based
# CONDITION_NOTES: Jurkat PD-1 NFAT-luciferase cells co-cultured with aAPC-PD-L1 CHO cells, 6 hrs at 37° C.; read-out: EC50 NFAT Luciferase
# unit: nM | format: bare number

Give the reported EC50 for this compound. COc1nc(O[C@H]2CCc3c(-c4cccc(-c5cnc(CNC[C@@H]6CCC(=O)N6)c(OC)n5)c4Cl)cccc32)c(Cl)cc1CN1CC[C@@H](C(=O)O)C1 [Example 768] 33

State its EC50 for this compound: C[C@@](CO)(NCc1ccc(O[C@H]2CCc3c(-c4cccc(-c5ccc(C6=NCCN6)cc5)c4Cl)cccc32)nc1OCc1cncc(C#N)c1)C(=O)O [Example 740] 288

Using known records, supply EC50 for Cc1c(COc2cc(OCc3cncc(C#N)c3)c(CNC[C@@H](O)CC(=O)O)cc2Cl)cccc1-c1cccc(-c2ccc(CN(C)C)cc2)c1C [Example 383] 467

Look up and state reported EC50 for COc1nc(O[C@H]2CCc3c(-c4cccc(-c5ccc(C6=N[C@@H](C)CN6)c(OC)n5)c4Cl)cccc32)c(Br)cc1CN[C@@](C)(CO)C(=O)O [Example 781] 34

Supply reported EC50 belonging to this compound: COc1nc(O[C@H]2CCc3c(-c4cccc(-c5cnc6c(CN7CC8(CNC(=O)C8)C7)cn(C)c6n5)c4Cl)cccc32)c(Cl)cc1CN1CC(C(=O)O)C1 [Example 527] 46

====

# TEST_SYSTEM: PD-1/PD-L1 interaction (Homo sapiens)
# Construct: expressed in transfected cells; host or cells: CHO cells (aAPC-PD-L1) co-cultured with Jurkat cells overexpressing PD-1 and an NFAT-luciferase reporter
# EXPERIMENTAL_DETAILS: PD-1/PD-L1 NFAT reporter co-culture assay
# Assay type: cell-based
# CONDITION_NOTES: Jurkat PD-1 NFAT-luciferase cells co-cultured with aAPC-PD-L1 CHO cells, 6 hrs at 37° C.; read-out: EC50 NFAT Luciferase
pEC50: −log10 of the molar value.
Use 1.0 when the recorded pEC50 is no lower than 7; use 0.0 when it is lower.

[
  {
    "SMILES_REPR": "Cc1c(COc2cc(OCc3ccnc(C#N)c3)c(CNC[C@@H](O)CC(=O)O)cc2Cl)cccc1-c1cccc(COc2cc(OCc3ccnc(C#N)c3)c(CNC[C@@H](O)CC(=O)O)cc2Cl)c1C",
    "CATEGORY": 0.0
  },
  {
    "SMILES_REPR": "Cc1c(COc2cc(OCc3cncc(C#N)c3)c(CNC[C@@H](O)CC(=O)O)cc2Cl)cccc1-c1cccc(-c2ccc3cc(CNC[C@@H](O)CC(=O)O)ccc3c2)c1C",
    "CATEGORY": 0.0
  }
]

Reported pEC50 reaches at least 7 for `Cc1c(COc2cc(OCc3cncc(C#N)c3)c(CN[C@@](C)(CO)C(=O)O)cc2Cl)cccc1-c1cccc(-c2nnc(CCN)o2)c1C` ? 0.0

Test whether the compound `Cc1c(OCc2cc(OCc3cncc(C#N)c3)c(CN[C@@](C)(CO)C(=O)O)cc2Cl)cccc1-c1cccc(-c2ccc(OCCN[C@@](C)(CO)C(=O)O)cc2)c1C` records pEC50 of 7 or higher. 0.0

Please check the record `COc1nc(OCc2cccc(-c3cccc(COc4nc(OC)c(CN[C@@H]5CONC5=O)cc4Cl)c3C)c2C)c(Cl)cc1CN[C@@H]1CONC1=O` and state if its pEC50 is at or above 7. 0.0

Identify whether the reported pEC50 of the following compound is 7 or greater: `COc1nc(-c2cccc(-c3cccc4c3CC[C@@H]4Oc3nc(OC)c(CN[C@@](C)(CO)C(=O)O)cc3Br)c2Br)ccc1CNC[C@@H]1CCC(=O)N1` 1.0

Hi, just wondering whether `COc1nc(OCc2cccc(-c3cccc(COc4nc(OC)c(CN[C@@H](C)C(N)=O)cc4Cl)c3C)c2C)c(Cl)cc1CN[C@@H](C)C(N)=O` shows pEC50 of 7 or higher. 0.0

# bool: pEC50 of `Cc1c(COc2cc(OCc3cncc(C#N)c3)c(CNC[C@@H](O)CC(=O)O)cc2Cl)cccc1-c1cccc(-c2ccc3sc(CNC[C@@H](O)CC(=O)O)cc3c2)c1C` >= 7 0.0

Assess whether reported pEC50 for `Cc1c(COc2cc(OCc3cncc(C#N)c3)c(CN[C@@](C)(CO)C(=O)O)cc2Cl)cccc1-c1cccc(-c2ccc(CNCCc3c[nH]cn3)cc2)c1C` sits at 7 or higher. 0.0

For this compound, is measured pEC50 7 or higher? `Cc1c(COc2cc(OCc3cncc(C#N)c3)c(CN[C@@](C)(CO)C(=O)O)cc2Cl)cccc1-c1cccc(-c2ccc(CN3CC[C@H](O)C3)cc2)c1C` 0.0

Confirm if pEC50 reported for the compound `COc1nc(OCc2cccc(-c3cccc(COc4nc(OC)c(CNCC(=O)NS(C)(=O)=O)cc4Cl)c3C)c2C)c(Cl)cc1CNCC(=O)NS(C)(=O)=O` is 7 or above. 0.0

Check the entry `Cc1c(COc2cc(OCc3cncc(C#N)c3)c(CNC[C@@H](O)CO)cc2Br)cccc1-c1cccc(COc2cc(OCc3cncc(C#N)c3)c(CNC[C@@H](O)CO)cc2Br)c1C` : does pEC50 equal or exceed 7? 0.0

# bool: pEC50 of `COc1nc(O[C@H]2CCc3c(-c4cccc(-c5cc(C)c(CNC[C@@H]6CCC(=O)N6)c(OC)n5)c4Cl)cccc32)c(Cl)cc1CN1CC[C@](C)(C(=O)O)C1` >= 7 1.0

Decide: pEC50 of `COc1nc(O[C@H]2CCc3c(-c4cccc5c4CC[C@@H]5Oc4nc(OC)c(CNC[C@H](O)CC(=O)O)cc4Br)cccc32)c(Br)cc1CNC[C@H](O)CC(=O)O` >= 7? 1.0

Would you say `Cc1c(COc2cc(OCc3cncc(C#N)c3)c(CN3CC[C@@H](O)C3)cc2Cl)cccc1-c1cccc(-c2ccc(CNC[C@@H](O)CC(=O)O)cc2)c1C` shows pEC50 at minimum 7? 0.0
